Experiment: Cytotoxicity against human EA.hy 926 assessed as inhibition of cell growth
Format: toxicity, cell-based
Condition Details: EA.hy 926 cells

| Smiles Notation | IC50 |
| --- | --- |
| NC(=O)/C=C/c1ccc(COc2ccc(-n3cc4cccc(C(N)=O)c4n3)cc2)cc1 | 26 µM |
| NC(=O)c1ccc(COc2ccc(-n3cc4cccc(C(N)=O)c4n3)cc2)cc1 | 5.41 µM |

----------
Target Or Test System: Vascular endothelial growth factor receptor 2 (Homo sapiens, UniProt P35968)
Sequence (P35968 whole entry): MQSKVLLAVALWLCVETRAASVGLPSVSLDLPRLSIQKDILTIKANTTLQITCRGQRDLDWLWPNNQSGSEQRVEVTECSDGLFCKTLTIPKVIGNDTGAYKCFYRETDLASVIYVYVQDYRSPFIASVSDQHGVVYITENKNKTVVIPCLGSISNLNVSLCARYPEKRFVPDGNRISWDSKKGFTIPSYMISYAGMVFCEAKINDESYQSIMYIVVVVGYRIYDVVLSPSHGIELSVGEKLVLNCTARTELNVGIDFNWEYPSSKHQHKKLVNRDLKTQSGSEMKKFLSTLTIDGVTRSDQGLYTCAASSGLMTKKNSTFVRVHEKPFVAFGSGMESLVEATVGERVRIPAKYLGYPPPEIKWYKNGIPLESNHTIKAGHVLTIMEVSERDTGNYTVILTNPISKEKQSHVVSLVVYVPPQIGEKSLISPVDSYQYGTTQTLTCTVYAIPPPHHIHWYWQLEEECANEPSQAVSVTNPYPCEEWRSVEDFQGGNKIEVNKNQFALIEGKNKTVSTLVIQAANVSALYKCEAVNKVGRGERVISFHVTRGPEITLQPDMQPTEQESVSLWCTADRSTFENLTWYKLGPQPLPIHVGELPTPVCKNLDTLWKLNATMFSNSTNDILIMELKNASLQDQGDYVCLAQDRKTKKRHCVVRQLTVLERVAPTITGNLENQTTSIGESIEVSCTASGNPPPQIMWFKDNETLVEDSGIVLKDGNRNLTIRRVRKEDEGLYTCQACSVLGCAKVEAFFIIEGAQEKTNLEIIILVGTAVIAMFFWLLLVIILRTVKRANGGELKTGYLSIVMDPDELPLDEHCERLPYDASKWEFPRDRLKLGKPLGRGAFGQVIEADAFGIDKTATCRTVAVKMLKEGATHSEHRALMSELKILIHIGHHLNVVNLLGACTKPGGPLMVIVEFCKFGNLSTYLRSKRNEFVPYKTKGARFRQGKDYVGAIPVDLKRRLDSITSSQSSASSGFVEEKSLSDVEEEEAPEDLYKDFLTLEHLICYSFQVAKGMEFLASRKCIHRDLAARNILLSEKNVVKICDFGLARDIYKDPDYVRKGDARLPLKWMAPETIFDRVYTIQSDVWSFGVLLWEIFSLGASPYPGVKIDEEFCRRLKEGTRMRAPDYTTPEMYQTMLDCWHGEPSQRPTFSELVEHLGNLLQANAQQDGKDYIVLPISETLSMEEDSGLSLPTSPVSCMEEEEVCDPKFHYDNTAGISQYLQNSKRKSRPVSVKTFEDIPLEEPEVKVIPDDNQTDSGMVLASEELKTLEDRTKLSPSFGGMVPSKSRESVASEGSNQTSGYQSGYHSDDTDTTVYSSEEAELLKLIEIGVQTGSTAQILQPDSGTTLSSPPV

| Smiles Notation | Target Or Test System | IC50 |
| --- | --- | --- |
| NC(=O)/C=C/c1ccc(COc2ccc(-n3cc4cccc(C(N)=O)c4n3)cc2)cc1 | Vascular endothelial growth factor receptor 2 (Homo sapiens, UniProt P35968) | 3.4 nM |
